Exercise: state measured Cell viability (fold DMSO) Mean for each of the compounds provided.
- System: Huh7.5 cells
- Test Name: Cell viability, CellTiter-Glo luminescent assay
- Test Settings: deconvolution screen, singletons, 50 µM, uninfected Huh7.5
Give bare numbers, in fold DMSO.

Sample answers from the record:
Compound | Cell viability (fold DMSO) Mean
COC(=O)c1cc(Br)no1 | 1.07
OCc1cc2cc(Br)ccc2[nH]1 [GA-0936, OCc1cc2cc(Br)ccc2[nH]1] | 0.83

Kindly review the next compound as well.
Kindly note the recorded Cell viability (fold DMSO) Mean for `CC(=O)c1ccc2cc(O)ccc2c1` , which is 1.00

====

- Tested on: Huh7.5 cells
- Test Name: Cell viability, CellTiter-Glo luminescent assay
- Test Settings: Table 1, NPP3C analogues, 50 μM, Huh7.5, 2 days
Field: Cell viability (Fold DMSO). Provide a value for each of the compounds that follow.
One number for each entry, in fold DMSO.

Compound | Experimental Target | Cell viability (Fold DMSO) (fold DMSO)
CC(Nc1ccccc1)c1cccnc1 (centres unmarked) | Huh7.5 cells | 0.94

Required: Cell viability (Fold DMSO), one value per compound below.
1. O=C(Nc1ccc(C(F)(F)F)cc1)c1cccnc1
2. O=C(NNc1ccccc1)c1ccncc1
3. Nc1cccc(NC(=O)c2cccnc2)c1

[0.87, 0.67, 0.96]

Kindly note the recorded Cell viability (Fold DMSO) for `O=C(Nc1ccccc1Cl)c1cccnc1` , which is 0.95

====

- Tested on: DENV-R2A (Rluc-expressing DENV, serotype 2 strain 16681)
- Test Name: microbe, parasite or virus in culture
- Assay type: cell-based, Dengue virus
- Test Settings: Dengue virus, Huh7.5, 48 h, read-out: EC50 DENV-R2A
Measured Attribute: EC50 (µM)
One number for each entry, in µM.

Compound | Recorded Value
CC(=O)c1ccc2cn[nH]c2c1 [Compound 6A1HI, 6-acetyl-1H-indazole] | 6.5

We now examine a further compound.
Entry O=C(Nc1ccccc1)c1cccnc1 [NPP3C, N-phenylpyridine-3-carboxamide] under DENV-R2A (Rluc-expressing DENV, serotype 2 strain 16681) had EC50 of 7.1

====

What Cell viability (Fold DMSO) was measured for each of the following?
- System: Huh7.5 cells
- Test Name: Cell viability, CellTiter-Glo luminescent assay
- Test Settings: 6A1HI analogues; test concentration = 50 µM; Huh7.5 cells

Example results:
Compound | Cell viability (Fold DMSO)
Oc1ccc2[nH]ncc2c1 | 0.98 Fold DMSO
O=C(NC1CC1)c1ccc(C(F)(F)F)nc1 | 0.98 Fold DMSO
CC(Nc1ccccc1)c1cccnc1 (stereo not shown) | 0.98 Fold DMSO

For each of the compounds below, state Cell viability (Fold DMSO).
1. CC(=O)c1ccc2cn[nH]c2c1
2. OCc1ccc2cn[nH]c2c1
3. NC(=O)c1ccc2cn[nH]c2c1
4. O=C(Nc1ccccc1)c1ccc(C(F)(F)F)nc1
5. CC(=O)c1ccc2[nH]c(=O)[nH]c2c1

0.93 Fold DMSO
0.93 Fold DMSO
0.99 Fold DMSO
1.03 Fold DMSO
0.98 Fold DMSO

Respectfully, I request Cell viability (Fold DMSO) for each entry included below.
1. CC(=O)c1cccc2cn[nH]c12
2. O=C(NNC(=O)c1ccncc1)Nc1ccccc1
3. NCc1ccc2cn[nH]c2c1
4. O=C(Nc1ccc(C(F)(F)F)cc1)c1cccnc1
5. Nc1cccc(NC(=O)c2cccnc2)c1

["1.03 Fold DMSO", "1.02 Fold DMSO", "0.76 Fold DMSO", "1.17 Fold DMSO", "1.08 Fold DMSO"]
